- Assayed target: T1, IL-6R-Fc 항원 (human, UniProt P08887 20-365, limits assumed)
- T1 construct: domain: IL-6R full domain; Made in-house as IL-6R-Fc; also called IL-6R full; IL-6R full domain인 단백질; not shown: Fc part (vector pYK 604)
- T1 sequence (looked up): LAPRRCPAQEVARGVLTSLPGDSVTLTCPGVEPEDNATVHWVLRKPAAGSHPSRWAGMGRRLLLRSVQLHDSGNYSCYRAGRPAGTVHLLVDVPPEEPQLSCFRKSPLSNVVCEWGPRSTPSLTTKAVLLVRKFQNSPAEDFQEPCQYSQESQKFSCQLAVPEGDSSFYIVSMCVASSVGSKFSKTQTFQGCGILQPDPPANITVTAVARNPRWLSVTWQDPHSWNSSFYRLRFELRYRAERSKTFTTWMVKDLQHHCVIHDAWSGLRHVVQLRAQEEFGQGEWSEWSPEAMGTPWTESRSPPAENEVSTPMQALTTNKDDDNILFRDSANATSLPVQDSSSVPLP
- Method notes: ELISA; IL-6R coated 100 ng/well; IgG at 0.04883 nM; anti-Fab-HRP
Form field: OD 490 nm (one value per entry).
Record the value in OD490, omitting the unit from your answer.

# count of solved cases: 3
항 IL-6R 단클론 항체 A7 (antibody, V domains shown) VH: QMQLVESGGGLVQPGTSLRLSCAASGFKFEDYAMHWVRQAPGKGLEWVSGVSWNSGTIAYVDSVKGRFTISRDNAKNSLYLQMNSLRAEDTAVYYCARDFTYFYESSGYYAFDLWGQGTMVTVSS VL: SQLVLTQPPSVSGAPGQRVTISCTGTNSNIGAGYDVHWYQQVPGTTPKLLIYGNTNRPSGVPDRFSGSKSGTSASLAITGLQAEDGGDYYCQSFDSSLTGSVFGTGTKVTVL = 0.498
항 IL-6R 단클론 항체 B10 (antibody, V domains shown) VH: QVQLVESGGGLVQPGGSLRLSCAASGFIFDDYAMFWVRQVPGKGLEWVAGINWNGNGIGYGDSVRGRFIISRDNARNSLDLQMNSLRAEDTAVYYCARPSLYGGNSEFDLWGQGTLVTVSS VL: SQLVLTQPPSVSGAPGQTVTISCTGPTIGAGYDVHWYQQLPGAAPKLLIYGNLNRPSGVPDRFSGSKSGTSASLAITDLQAEDEADYYCHTYDSSLSGSWVFGGGTKLTVL = 0.451
항 IL-6R 단클론 항체 D2 (antibody, V domains shown) VH: QVQLVESGAEVKKPGSSVKVSCKGSGDTFPNYAINWVRQAPGQGPEWMGRIIPMLGTSDYAEKFQGRVTITADKSTNTAYMGLNSLRSEDTAVYYCVKGPRYYGTDSYYLEKWGQGTMVTVSS VL: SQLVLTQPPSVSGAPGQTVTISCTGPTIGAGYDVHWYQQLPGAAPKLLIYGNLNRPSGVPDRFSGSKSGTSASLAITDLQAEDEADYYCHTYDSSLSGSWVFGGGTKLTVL = 0.451

Next binder, please.
# OD 490 nm of 항 IL-6R 단클론 항체 F2 (antibody, V domains shown) VH: QVQLVESGAEVKKPGASVKVSCKASGYTFTNYYMHWVRQAPGQGLEWMGIINPSGGNTGYAQKFQGRVTMTRDMSTSTAYMELSSLRSEDTAVYYCARGLPWGENGLDVWGQGTTVTVSS VL: SQLVLTQPSSVSGAPGQTVTISCTGSSSNIGAGYDVHWYQQLPGTAPKVLIYGDSDRPSGVPDRFSGSKSATSASLAITGLQAEDEADYYCQSYDSSLSAYVFGTGTKVTVL = 0.584
